# measurementTarget: wild type MLL1 four-member complex (MLL1-4C) (Homo sapiens)
# assayText: MLL1 LC-MS Assay
# Assay type: biochemical
# conditionLabel: read-out: LCMS
pIC50: −log10 of the molar value.
observedProperty: pIC50

Here is how some molecules turned out for pIC50.
molecule	measurementTarget	pIC50
N#Cc1c(F)ccc(N2CC[C@](N)(C(=O)NC3CC3)C2)c1Cn1cnc2c(N)ncnc21 [Example 4]	wild type MLL1 four-member complex (MLL1-4C) (Homo sapiens)	< 7.00
Nc1ncnc2c1ncn2Cc1c(N2CC[C@](N)(C(=O)NC3CC3)C2)cc(-c2cccs2)cc1C(F)(F)F [Example 94]	wild type MLL1 four-member complex (MLL1-4C) (Homo sapiens)	> 7.30

# molecule Nc1ncnc2c1ncn2Cc1c(Br)c(Cl)c2c(c1N1CC[C@](N)(C(=O)NC3CC3)C1)OCC2 [Example 110] ; its pIC50 = > 7.30

# molecule Nc1ncnc2c1ncn2Cc1c(Br)cc(Cl)c(Cl)c1N1CC[C@](N)(C(=O)NC2CC2)C1 [Example 43] ; its pIC50 = 7.00 to 7.30

# molecule Nc1ncnc2c1ncn2Cc1c(N2CC[C@](N)(C(=O)NC3CC3)C2)ccc(F)c1Br [Example 13] ; its pIC50 = > 7.30

# molecule Nc1ncnc2c1ncn2Cc1c(N2CC[C@](N)(C(=O)NCc3cccnc3O)C2)ccc(F)c1C(F)(F)F [Example 120] ; its pIC50 = 7.00 to 7.30

# molecule Nc1ncnc2c1ncn2Cc1c(N2CC[C@](N)(C(=O)N3CCn4nccc4C3)C2)ccc(F)c1C(F)(F)F [Example 137] ; its pIC50 = 7.00 to 7.30

# molecule Nc1ncnc2c1ncn2Cc1c(N2CCC(N)(c3ccccn3)C2)ccc(F)c1C(F)(F)F (stereo not drawn) [Example 22] ; its pIC50 = 7.00 to 7.30

###

# reported pIC50; entries follow
# Tested on: MV4-11 cells
# assayText: MV4-11 6-Day Cell Growth CTG (CellTiter-Glo) Assay
# Type: cell-based
# conditionLabel: Homo sapiens, MV4-11, 144 h, MV4-11 cell growth CellTiter-Glo, 6 days
pIC50: −log10 of the molar value.

compound	measurementTarget	pIC50
CN(Cc1c(F)ccc(N2CC[C@](N)(C(=O)NC3CC3)C2)c1Cn1cnc2c(N)ncnc21)C1CC1 [Example 48]	MV4-11 cells	5.52 to 5.70
CCc1cc(-c2cnn(C)c2)cc(N2CC[C@](N)(C(=O)NC3CC3)C2)c1Cn1cnc2c(N)ncnc21 [Example 96]	MV4-11 cells	< 5.52
COCc1c(F)ccc(N2CC[C@](N)(C(=O)NC3CC3)C2)c1Cn1cnc2c(N)ncnc21 [Example 77]	MV4-11 cells	> 5.70
CCc1cc(Cl)cc(N2CC[C@](N)(C(=O)NC(C)C)C2)c1Cn1cnc2c(N)ncnc21 [Example 161]	MV4-11 cells	> 5.70

In the following, a different compound is considered.
# compound Nc1ncnc2c1ncn2Cc1c(N2CC[C@](N)(C(=O)NC3CC3)C2)ccc(F)c1CN1CCC(F)CC1 [Example 56] ; its pIC50 = > 5.70

###

# measurementTarget: wild type MLL1 four-member complex (MLL1-4C) (Homo sapiens)
# assayText: MLL1 LC-MS Assay
# Assay type: biochemical
# conditionLabel: read-out: LCMS
pIC50: −log10 of the molar value.
# reported pIC50; entries follow

# molecule `Nc1ncnc2c1ncn2Cc1c(N2CC[C@](N)(c3nc[nH]n3)C2)ccc(Cl)c1Cl` ; its pIC50 = > 7.30

# molecule Nc1ncnc2c1ncn2Cc1c(Br)cc2c(c1N1CCC(N)(C(=O)NC3CC3)C1)OCO2 (stereo not shown) ; its pIC50 = > 7.30

# molecule `Nc1ncnc2c1ncn2Cc1c(N2CC[C@](N)(C(=O)NC3CC3)C2)ccc(F)c1CN1CCCC1` ; its pIC50 = 7.00 to 7.30

# molecule `CCc1cc(Cl)cc(N2CC[C@](N)(c3nc[nH]n3)C2)c1Cn1cnc2c(N)ncnc21` ; its pIC50 = > 7.30

# molecule `Nc1ncnc2c1ncn2Cc1c(N2CC[C@](N)(C(=O)N[C@@H]3C[C@H]3CO)C2)ccc(F)c1C(F)(F)F` ; its pIC50 = > 7.30

# molecule `CN(C)Cc1c(Cl)c(Cl)cc(N2CC[C@](N)(C(=O)NC3CC3)C2)c1Cn1cnc2c(N)ncnc21` ; its pIC50 = > 7.30

# molecule `N#CC1CN(C(=O)[C@@]2(N)CCN(c3ccc(F)c(C(F)(F)F)c3Cn3cnc4c(N)ncnc43)C2)C1` ; its pIC50 = 7.00 to 7.30

# molecule `Nc1ncnc2c1ncn2Cc1c(N2CC[C@](N)(C(=O)NC3CC3)C2)cc(Cl)c(F)c1CN1CCOCC1` ; its pIC50 = > 7.30

# molecule `Nc1ncnc2c1ncn2Cc1c(Br)cc(Cl)cc1N1CC[C@](N)(C(=O)NC2CC2)C1` ; its pIC50 = > 7.30

# molecule `CCc1cc(Cl)cc(N2CC[C@](N)(CCc3nnc(NC)s3)C2)c1Cn1cnc2c(N)ncnc21` ; its pIC50 = 7.00 to 7.30

###

# System: MV4-11 cells
# assayText: MV4-11 6-Day Cell Growth CTG (CellTiter-Glo) Assay
# Assay type: cell-based
# conditionLabel: Homo sapiens, MV4-11, 144 h, MV4-11 cell growth CellTiter-Glo, 6 days
pIC50: −log10 of the molar value.
# reported pIC50; entries follow

Here is how some compounds turned out for pIC50.
compound	observedProperty	observed
Nc1ncnc2c1ncn2Cc1c(I)c(F)c2c(c1N1CC[C@](N)(C(=O)NC3CC3)C1)OCC2	pIC50	5.52 to 5.70
COCc1c(Cl)ccc(N2CC[C@](N)(C(=O)NC3CC3)C2)c1Cn1cnc2c(N)ncnc21	pIC50	> 5.70
CCc1cc(Cl)cc(N2CC[C@](N)(CO)C2)c1Cn1cnc2c(N)ncnc21	pIC50	> 5.70
Nc1ncnc2c1ncn2Cc1c(N2CC[C@](N)(C(=O)NC3CC3)C2)ccc(Cl)c1COC(F)F	pIC50	> 5.70
Nc1ncnc2c1ncn2Cc1c(N2CC[C@](N)(C(=O)NCc3cccnc3O)C2)ccc(F)c1C(F)(F)F	pIC50	> 5.70

Value (pIC50, MV4-11 cells) for record `Nc1ncnc2c1ncn2Cc1c(N2CC[C@](N)(C(=O)N3CCn4nncc4C3)C2)ccc(F)c1C(F)(F)F` = < 5.52

Value (pIC50, MV4-11 cells) for record Nc1ncnc2c1ncn2Cc1c(Br)cc2c(c1N1CCC(N)(C(=O)NC3CC3)C1)OCO2 (centres unmarked) = > 5.70

Value (pIC50, MV4-11 cells) for record `Nc1ncnc2c1ncn2Cc1c(N2CC[C@](N)(C(=O)NC3CC3)C2)ccc(F)c1CNCC(F)(F)F` = > 5.70
